Assay: Pharmacokinetics after repeated-dose intragastric administration in rats
Format: in vivo, Sprague Dawley rats
Conditions: Sprague-Dawley, rat, plasma, po; male rats, R-IG 6.5 mg/kg, 14 days; read-out: Vss/F
Metric: Vd/F at 14 days (L/kg)

| Compound | Meas value |
| --- | --- |
| CC1(C)OC2CC(=O)OCC23C1C/C(=N\OCCN1CCOCC1)C1(C)C3CC[C@@]2(C)[C@H](c3ccoc3)OC(=O)C3OC312 (stereo partly shown) | 108 |

----------
Experiment: Pharmacokinetics after single-dose intragastric administration in rats
Type: in vivo, Sprague Dawley rats
Settings: Sprague-Dawley, rat, plasma, po; female rats, S-IG 3.25 mg/kg

| Compound | Endpoint unit | Cmax |
| --- | --- | --- |
| CC1(C)OC2CC(=O)OCC23C1C/C(=N\OCCN1CCOCC1)C1(C)C3CC[C@@]2(C)[C@H](c3ccoc3)OC(=O)C3OC312 (stereo partly shown) | µg/mL | 0.0204 |

----------
Test: Plasma protein binding, dog plasma
Assay type: in vitro ADME
Conditions: 200 ng/mL, mean, read-out: plasma protein binding rate (converted)
Metric: fraction unbound at 200 ng/mL

| Compound | Metric | Meas value |
| --- | --- | --- |
| CC1(C)OC2CC(=O)OCC23C1C/C(=N\OCCN1CCOCC1)C1(C)C3CC[C@@]2(C)[C@H](c3ccoc3)OC(=O)C3OC312 (stereo partly shown) | fraction unbound at 200 ng/mL | 0.578 |

----------
Experiment: Pharmacokinetics after single-dose intragastric administration in rats
Assay type: in vivo, Sprague Dawley rats
Details: Sprague-Dawley, rat, plasma, po; male rats, S-IG 13 mg/kg
Metric: Tmax (min)

| Compound | Endpoint unit | Meas value |
| --- | --- | --- |
| CC1(C)OC2CC(=O)OCC23C1C/C(=N\OCCN1CCOCC1)C1(C)C3CC[C@@]2(C)[C@H](c3ccoc3)OC(=O)C3OC312 (stereo partly shown) [HY-071085] | min | 51 |

----------
Experiment: Pharmacokinetics after single-dose intragastric administration in beagle dogs
Type: in vivo
Details: both sexes, dog, plasma, po, 1.25 mg/kg intragastric vs intravenous, from AUC0-∞, read-out: absolute oral bioavailability

| Molecule | bioavailability |
| --- | --- |
| CC1(C)OC2CC(=O)OCC23C1C/C(=N\OCCN1CCOCC1)C1(C)C3CC[C@@]2(C)[C@H](c3ccoc3)OC(=O)C3OC312 (stereo partly shown) [HY-071085] | ~13.1% |

----------
Assay: Pharmacokinetics after repeated-dose intragastric administration in beagle dogs
Format: in vivo
Conditions: both sexes, dog, plasma, po, R-IG 2.5 mg/kg, 7 d

| Molecule | AUC(0-inf) [ng·h/mL] |
| --- | --- |
| CC1(C)OC2CC(=O)OCC23C1C/C(=N\OCCN1CCOCC1)C1(C)C3CC[C@@]2(C)[C@H](c3ccoc3)OC(=O)C3OC312 (stereo partly shown) | 729 |

----------
Experiment: Pharmacokinetics after single-dose intragastric administration in rats
Assay type: in vivo, Sprague Dawley rats
Conditions: Sprague-Dawley, rat, plasma, po; female rats, S-IG 6.5 mg/kg
Metric: half-life (h)

| Compound | Endpoint unit | Meas value |
| --- | --- | --- |
| CC1(C)OC2CC(=O)OCC23C1C/C(=N\OCCN1CCOCC1)C1(C)C3CC[C@@]2(C)[C@H](c3ccoc3)OC(=O)C3OC312 (stereo partly shown) | h | 1.3 |

----------
Experiment: Pharmacokinetics after single-dose intragastric administration in beagle dogs
Type: in vivo
Conditions: both sexes, dog, plasma, po, S-IG 5 mg/kg, read-out: Vss/F
Metric: Vd/F

| Compound | Meas value |
| --- | --- |
| CC1(C)OC2CC(=O)OCC23C1C/C(=N\OCCN1CCOCC1)C1(C)C3CC[C@@]2(C)[C@H](c3ccoc3)OC(=O)C3OC312 (stereo partly shown) | 11.5 L/kg |

----------
Test: Pharmacokinetics after repeated-dose intragastric administration in beagle dogs
Format: in vivo
Conditions: both sexes, dog, plasma, po, R-IG 2.5 mg/kg, 7 d

| Compound | MRT at 7 d |
| --- | --- |
| CC1(C)OC2CC(=O)OCC23C1C/C(=N\OCCN1CCOCC1)C1(C)C3CC[C@@]2(C)[C@H](c3ccoc3)OC(=O)C3OC312 (stereo partly shown) | 1.58 h |

----------
Assay: Pharmacokinetics after single-dose intragastric administration in rats
Assay type: in vivo, Sprague Dawley rats
Conditions: Sprague Dawley, rat, plasma, po; female rats, S-IG 13 mg/kg; read-out: AUC0-tn
Metric: AUC (ng·h/mL)

| Compound | Metric | Endpoint unit | Meas value |
| --- | --- | --- | --- |
| CC1(C)OC2CC(=O)OCC23C1C/C(=N\OCCN1CCOCC1)C1(C)C3CC[C@@]2(C)[C@H](c3ccoc3)OC(=O)C3OC312 (stereo partly shown) | AUC | ng·h/mL | 2080 |

----------
Experiment: Pharmacokinetics after single-dose intravenous administration in rats
Format: in vivo, Sprague Dawley rats
Conditions: Sprague Dawley, rat, plasma; male rats, S-IV 3.25 mg/kg

| Molecule | MRT / min |
| --- | --- |
| CC1(C)OC2CC(=O)OCC23C1C/C(=N\OCCN1CCOCC1)C1(C)C3CC[C@@]2(C)[C@H](c3ccoc3)OC(=O)C3OC312 (stereo partly shown) | 17.4 |

----------
Assay: Pharmacokinetics after single-dose intragastric administration in beagle dogs
Type: in vivo
Details: both sexes, dog, plasma, po, S-IG 1.25 mg/kg
Procedure: Male and female beagle dogs were administered low (1.25 mg/kg), medium (2.5 mg/kg) and high (5 mg/kg) doses of HY-071085 by gastric gavage, and blood samples were collected from the forelimb vein at various time points before and 8 h after administration in order to analyze the concentration of HY-071085 in the plasma. […] According to the obtained plasma concentration time data, the pharmacokinetic parameters were calculated using Phoenix WinNonlin 8.1 software. […]

| Compound | Cmax (ng/mL) |
| --- | --- |
| CC1(C)OC2CC(=O)OCC23C1C/C(=N\OCCN1CCOCC1)C1(C)C3CC[C@@]2(C)[C@H](c3ccoc3)OC(=O)C3OC312 (stereo partly shown) | 37.9 |

----------
Test: Pharmacokinetics after repeated-dose intragastric administration in rats
Format: in vivo, Sprague Dawley rats
Details: Sprague Dawley, rat, plasma, po; female rats, R-IG 6.5 mg/kg, 14 days

| Molecule | CL/F at 14 days [mL/min/kg] |
| --- | --- |
| CC1(C)OC2CC(=O)OCC23C1C/C(=N\OCCN1CCOCC1)C1(C)C3CC[C@@]2(C)[C@H](c3ccoc3)OC(=O)C3OC312 (stereo partly shown) [HY-071085] | 630 |

----------
Experiment: Pharmacokinetics after repeated-dose intragastric administration in rats
Format: in vivo, Sprague Dawley rats
Conditions: Sprague-Dawley, rat, plasma, po; male rats, R-IG 6.5 mg/kg, 14 days

| Compound | Endpoint unit | Cmax at 14 days |
| --- | --- | --- |
| CC1(C)OC2CC(=O)OCC23C1C/C(=N\OCCN1CCOCC1)C1(C)C3CC[C@@]2(C)[C@H](c3ccoc3)OC(=O)C3OC312 (stereo partly shown) | ng/mL | 63.2 |

----------
Assay: Pharmacokinetics after single-dose intragastric administration in rats
Format: in vivo, Sprague Dawley rats
Details: Sprague Dawley, rat, plasma, po; male rats, S-IG 6.5 mg/kg

| Compound | MRT |
| --- | --- |
| CC1(C)OC2CC(=O)OCC23C1C/C(=N\OCCN1CCOCC1)C1(C)C3CC[C@@]2(C)[C@H](c3ccoc3)OC(=O)C3OC312 (stereo partly shown) | 2.89 h |

----------
Assay: Pharmacokinetics after repeated-dose intragastric administration in rats
Format: in vivo, Sprague Dawley rats
Settings: Sprague Dawley, rat, plasma, po; female rats, R-IG 6.5 mg/kg, 28 days

| Compound | CL/F at 28 days / mL/min/kg |
| --- | --- |
| CC1(C)OC2CC(=O)OCC23C1C/C(=N\OCCN1CCOCC1)C1(C)C3CC[C@@]2(C)[C@H](c3ccoc3)OC(=O)C3OC312 (stereo partly shown) | 1730 |

----------
Assay: Pharmacokinetics after repeated-dose intragastric administration in rats
Type: in vivo, Sprague Dawley rats
Settings: Sprague-Dawley, rat, plasma, po; male rats, R-IG 6.5 mg/kg, 28 days

| Compound | Cmax at 28 days / ng/mL |
| --- | --- |
| CC1(C)OC2CC(=O)OCC23C1C/C(=N\OCCN1CCOCC1)C1(C)C3CC[C@@]2(C)[C@H](c3ccoc3)OC(=O)C3OC312 (stereo partly shown) [HY-071085] | 38.9 |

----------
Assay: Pharmacokinetics after single-dose intragastric administration in rats
Type: in vivo, Sprague Dawley rats
Conditions: Sprague Dawley, rat, plasma, po; female rats, S-IG 13 mg/kg
Metric: MRT (h)

| Compound | Metric | Meas value |
| --- | --- | --- |
| CC1(C)OC2CC(=O)OCC23C1C/C(=N\OCCN1CCOCC1)C1(C)C3CC[C@@]2(C)[C@H](c3ccoc3)OC(=O)C3OC312 (stereo partly shown) [HY-071085] | MRT | 2.29 |
